Molecular target: EGFR Δ746-750 mutant (Homo sapiens (Human), UniProt P00533, DEL746-750)
Sequence (P00533 other isoform, or with tags, fused parts or gaps del 1-668/del 746-750 limits assumed): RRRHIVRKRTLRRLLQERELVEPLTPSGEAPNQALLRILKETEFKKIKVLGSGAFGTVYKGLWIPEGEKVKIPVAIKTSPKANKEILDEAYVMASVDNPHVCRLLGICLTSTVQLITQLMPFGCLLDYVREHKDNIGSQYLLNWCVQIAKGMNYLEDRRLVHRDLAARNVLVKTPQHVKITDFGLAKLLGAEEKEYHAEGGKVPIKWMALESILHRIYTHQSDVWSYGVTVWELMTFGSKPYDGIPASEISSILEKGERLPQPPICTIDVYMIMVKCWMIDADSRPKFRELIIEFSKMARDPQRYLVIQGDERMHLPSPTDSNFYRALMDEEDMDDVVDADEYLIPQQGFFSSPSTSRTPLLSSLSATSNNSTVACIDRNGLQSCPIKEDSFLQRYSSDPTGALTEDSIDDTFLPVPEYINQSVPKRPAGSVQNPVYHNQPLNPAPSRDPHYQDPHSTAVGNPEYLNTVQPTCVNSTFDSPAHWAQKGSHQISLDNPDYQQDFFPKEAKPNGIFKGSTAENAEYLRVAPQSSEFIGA
Assay: HotSpot radiometric kinase assay, EGFR Δ746-750 mutant
Details: 10 μM ATP
Parameter: IC50. Scope: all listed entries.
MEASURE_NAME: IC50 (nM)

>>> df
                                smiles_data  numeric_value
0  CCc1nn(C)c2c1/C=C/c1n[nH]c3ccc(cc13)-c1cnn(C)c1O[C@@H](C)CCO2             64
1  C[C@H]1CN(C)Cc2c(c(O)nn2C)/C=C/c2n[nH]c3ccc(cc23)-c2cnn(C)c2O1             35
2  CC(C)Oc1nn(CCO)c2c1/C=C/c1n[nH]c3ccc(cc13)-c1cnn(C)c1O[C@@H](C)CN(C)C2           0.59
3  CCOc1nn(CCO)c2c1/C=C/c1n[nH]c3ccc(cc13)-c1cnn(CC)c1O[C@@H](C)CN(C)C2           5.96
4  CCc1nn(CCN2CC[C@H](O)C2)c2c1/C=C/c1n[nH]c3ccc(cc13)-c1cnn(C)c1OCCCO2             93
5  C[C@H]1CN(C)Cc2c(c(OCC(F)(F)F)nn2C)/C=C/c2n[nH]c3ccc(cc23)-c2cnn(C)c2O1           30.5
6  CCN1Cc2c(c(OC(C)C)nn2CCO)/C=C/c2n[nH]c3cc(F)c(cc23)-c2cnn(C)c2O[C@@H](C)C1           0.47

---

Target: EGFR Δ746-750/C797S mutant (Homo sapiens (Human), UniProt P00533, C797S/DEL746-750)
Sequence (P00533 other isoform, or with tags, fused parts or gaps C797S/del 1-668/del 746-750 limits assumed): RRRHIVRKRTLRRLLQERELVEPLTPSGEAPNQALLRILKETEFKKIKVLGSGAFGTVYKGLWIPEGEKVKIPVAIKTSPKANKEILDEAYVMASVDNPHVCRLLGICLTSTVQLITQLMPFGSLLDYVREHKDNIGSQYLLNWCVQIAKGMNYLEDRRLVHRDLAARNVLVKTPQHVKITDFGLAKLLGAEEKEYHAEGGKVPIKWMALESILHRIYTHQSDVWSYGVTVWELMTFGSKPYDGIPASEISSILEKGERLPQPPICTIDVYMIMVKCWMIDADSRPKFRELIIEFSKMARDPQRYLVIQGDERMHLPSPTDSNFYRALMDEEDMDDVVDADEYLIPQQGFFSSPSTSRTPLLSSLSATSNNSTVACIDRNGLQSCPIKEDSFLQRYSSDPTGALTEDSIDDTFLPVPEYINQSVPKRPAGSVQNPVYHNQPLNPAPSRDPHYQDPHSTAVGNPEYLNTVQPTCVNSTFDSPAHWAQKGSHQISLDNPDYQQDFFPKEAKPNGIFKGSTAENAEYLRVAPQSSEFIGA
Assay: HotSpot radiometric kinase assay, EGFR Δ746-750/C797S mutant
Conditions: 10 μM ATP
pIC50: −log10 of the molar value.
Parameter: pIC50. Scope: all listed entries.
MEASURE_NAME: pIC50

>>> print(df.to_string())
                                   molecule  numeric_value
0  Cc1nn([C@H]2CN(C)C[C@@H]2O)c2c1/C=C/c1n[nH]c3ccc(cc13)-c1cnn(C)c1CN(C)CCO2 (racemic)           7.57
1  CCc1nn(CCO)c2c1/C=C/c1n[nH]c3ccc(cc13)-c1cnn(C)c1O[C@@H](C)CN(C)C2           9.40
2  CCN1Cc2c(c(OC(C)C)nn2CC(C)=O)/C=C/c2n[nH]c3ccc(cc23)-c2cnn(C)c2O[C@@H](C)C1           8.75
3  C[C@H]1CN(C)Cc2cnn(C)c2/C=C/c2n[nH]c3ccc(cc23)-c2cnn(C)c2O1           7.17

---

Molecular target: ALK (Homo sapiens (Human))
Sequence (Q9UM73 19-1620): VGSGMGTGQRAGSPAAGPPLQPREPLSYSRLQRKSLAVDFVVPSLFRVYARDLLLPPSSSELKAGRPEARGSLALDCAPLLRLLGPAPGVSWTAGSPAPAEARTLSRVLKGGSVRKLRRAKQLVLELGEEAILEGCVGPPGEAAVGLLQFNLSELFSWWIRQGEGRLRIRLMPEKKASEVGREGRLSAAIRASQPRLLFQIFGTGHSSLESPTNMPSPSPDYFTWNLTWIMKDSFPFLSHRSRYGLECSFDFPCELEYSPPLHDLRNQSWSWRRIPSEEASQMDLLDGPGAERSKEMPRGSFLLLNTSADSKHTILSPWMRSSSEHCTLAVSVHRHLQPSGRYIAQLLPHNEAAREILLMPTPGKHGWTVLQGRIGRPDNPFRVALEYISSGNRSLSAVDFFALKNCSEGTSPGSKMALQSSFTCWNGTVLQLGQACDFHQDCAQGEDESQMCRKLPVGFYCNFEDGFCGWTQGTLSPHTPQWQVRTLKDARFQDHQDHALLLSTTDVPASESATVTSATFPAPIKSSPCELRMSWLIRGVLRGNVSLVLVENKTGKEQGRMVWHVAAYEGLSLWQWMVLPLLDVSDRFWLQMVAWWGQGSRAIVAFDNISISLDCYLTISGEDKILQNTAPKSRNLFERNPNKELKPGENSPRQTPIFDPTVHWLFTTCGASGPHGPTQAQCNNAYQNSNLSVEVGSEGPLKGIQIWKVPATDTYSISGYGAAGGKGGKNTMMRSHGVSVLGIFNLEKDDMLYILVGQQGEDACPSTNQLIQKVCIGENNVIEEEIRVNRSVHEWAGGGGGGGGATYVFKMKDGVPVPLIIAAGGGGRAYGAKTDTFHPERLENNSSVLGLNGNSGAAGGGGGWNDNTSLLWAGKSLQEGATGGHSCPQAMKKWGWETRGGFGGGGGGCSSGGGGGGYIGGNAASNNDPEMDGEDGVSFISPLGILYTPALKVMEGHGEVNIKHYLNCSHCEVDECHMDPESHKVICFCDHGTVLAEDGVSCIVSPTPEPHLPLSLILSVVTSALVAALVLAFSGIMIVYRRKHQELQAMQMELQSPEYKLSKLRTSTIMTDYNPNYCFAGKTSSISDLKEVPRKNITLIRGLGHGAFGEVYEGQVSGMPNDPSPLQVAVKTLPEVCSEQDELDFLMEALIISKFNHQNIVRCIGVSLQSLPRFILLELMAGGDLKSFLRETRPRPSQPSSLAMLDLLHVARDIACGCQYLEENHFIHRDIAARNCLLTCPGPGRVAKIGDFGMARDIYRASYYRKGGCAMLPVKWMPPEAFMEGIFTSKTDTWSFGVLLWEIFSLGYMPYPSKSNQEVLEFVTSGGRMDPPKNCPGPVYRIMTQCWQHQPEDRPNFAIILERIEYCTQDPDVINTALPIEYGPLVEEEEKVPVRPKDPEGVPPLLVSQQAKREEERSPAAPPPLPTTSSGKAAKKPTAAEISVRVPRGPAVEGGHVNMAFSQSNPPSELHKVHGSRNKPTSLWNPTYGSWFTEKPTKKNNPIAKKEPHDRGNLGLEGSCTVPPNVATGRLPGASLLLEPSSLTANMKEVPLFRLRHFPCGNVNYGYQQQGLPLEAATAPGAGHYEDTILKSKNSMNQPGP
Parameter: IC50. Scope: all listed entries.
MEASURE_NAME: IC50 (nM)

In [3]: df
Out[3]:
                                smiles_data  numeric_value
0  CCN1Cc2c(c(OC(C)C)nn2CC(N)=O)/C=C/c2n[nH]c3ccc(cc23)-c2cnn(C)c2O[C@@H](C)C1            0.9
1  CC(C)Oc1nn(CCO)c2c1/C=C/c1n[nH]c3ccc(cc13)-c1cnn(C)c1O[C@@H](C)CN(C)C2           0.99
2  CCOc1nn([C@@H](C)CO)c2c1/C=C/c1n[nH]c3cc(F)c(cc13)-c1cnn(C)c1O[C@@H](C)CN(C)C2           2.47
3  Cc1onc2c1/C=C/c1n[nH]c3ccc(cc13)-c1cnn(C)c1O[C@@H](C)CN(C)C2           21.6

---

Parameter: pIC50. Scope: all listed entries.
Biological target: EGFR Δ746-750/C797S mutant (Homo sapiens (Human), UniProt P00533, C797S/DEL746-750)
Test: HotSpot radiometric kinase assay, EGFR Δ746-750/C797S mutant
Conditions: 10 μM ATP
pIC50: −log10 of the molar value.
MEASURE_NAME: pIC50

>>> print(df.to_string())
                                   molecule  numeric_value
0  CCOc1nn(CCO)c2c1/C=C/c1n[nH]c3ccc(cc13)-c1cnn(C)c1O[C@@H](C)CN(CC)C2           9.12
1  CCc1nn(C)c2c1/C=C/c1n[nH]c3ccc(cc13)-c1cnn(C)c1CN(C)CCO2           7.55
2  CCc1nn(CCO)c2c1/C=C/c1n[nH]c3ccc(cc13)-c1cnn(C)c1OCCCO2           7.35
3  Cc1nn(CCO)c2c1/C=C/c1n[nH]c3ccc(cc13)-c1cnn(C)c1CN(C)CCO2           8.07
4  Cn1ncc2c1COCCOc1ccccc1/C=C/c1n[nH]c3ccc-2cc13           6.75
5  Cc1nn(CCN2CCCC2)c2c1/C=C/c1n[nH]c3ccc(cc13)-c1cnn(C)c1C(C)OCCO2 (centres unmarked)           7.04
6  Cn1ncc2c1OCCN1CC[C@H](C1)Oc1ccccc1/C=C/c1n[nH]c3ccc-2cc13           7.52
7  Cc1nn(C)c2c1/C=C/c1n[nH]c3ccc(cc13)-c1cnn(C)c1OCCN(C)C(=O)CO2           6.64

---

As an illustration, consider measured IC50 for compounds on EGFR WT (Homo sapiens (Human), UniProt P00533).
Sequence (P00533 25-1210): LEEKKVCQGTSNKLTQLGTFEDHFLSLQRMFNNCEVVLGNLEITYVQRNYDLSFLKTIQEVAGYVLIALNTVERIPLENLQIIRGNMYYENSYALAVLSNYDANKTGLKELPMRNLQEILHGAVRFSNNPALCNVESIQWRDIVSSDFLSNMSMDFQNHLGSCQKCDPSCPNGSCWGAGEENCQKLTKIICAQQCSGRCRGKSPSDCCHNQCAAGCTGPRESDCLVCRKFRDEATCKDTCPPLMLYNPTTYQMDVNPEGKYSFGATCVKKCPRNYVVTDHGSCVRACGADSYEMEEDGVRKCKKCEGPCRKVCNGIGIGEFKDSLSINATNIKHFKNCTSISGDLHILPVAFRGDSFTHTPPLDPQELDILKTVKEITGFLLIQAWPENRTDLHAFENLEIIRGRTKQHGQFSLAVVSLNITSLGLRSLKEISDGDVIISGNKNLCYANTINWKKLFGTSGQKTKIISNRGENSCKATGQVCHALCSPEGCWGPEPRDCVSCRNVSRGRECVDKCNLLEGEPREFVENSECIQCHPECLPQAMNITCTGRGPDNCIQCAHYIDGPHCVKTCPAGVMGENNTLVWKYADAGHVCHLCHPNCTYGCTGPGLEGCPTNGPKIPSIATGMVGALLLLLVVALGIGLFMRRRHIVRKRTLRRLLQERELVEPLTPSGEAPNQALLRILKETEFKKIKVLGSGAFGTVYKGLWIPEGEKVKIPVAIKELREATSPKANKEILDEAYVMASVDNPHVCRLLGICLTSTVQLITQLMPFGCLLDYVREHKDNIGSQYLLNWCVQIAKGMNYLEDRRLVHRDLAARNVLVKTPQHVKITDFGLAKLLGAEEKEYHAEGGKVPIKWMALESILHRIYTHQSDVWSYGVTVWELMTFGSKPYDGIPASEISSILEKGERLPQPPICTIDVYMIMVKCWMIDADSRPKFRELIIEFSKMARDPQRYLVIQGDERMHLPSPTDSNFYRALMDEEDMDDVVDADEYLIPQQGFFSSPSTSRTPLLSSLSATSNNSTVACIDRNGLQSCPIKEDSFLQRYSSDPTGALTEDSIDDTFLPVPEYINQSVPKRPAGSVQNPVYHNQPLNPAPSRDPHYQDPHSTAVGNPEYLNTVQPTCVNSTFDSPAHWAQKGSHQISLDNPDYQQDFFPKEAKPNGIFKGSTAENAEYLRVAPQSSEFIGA
MEASURE_NAME: IC50

>>> print(df.to_string())
                                   compound                              study_system   result
0  CCc1nn(C)c2c1/C=C/c1n[nH]c3ccc(cc13)-c1cnn(C)c1O[C@@H](C)COC2  EGFR WT (Homo sapiens (Human), UniProt P00533)   766 nM
1  CCOc1nn(CCO)c2c1/C=C/c1n[nH]c3ccc(cc13)-c1cnn(C)c1O[C@@H]1CCCN(C2)C1  EGFR WT (Homo sapiens (Human), UniProt P00533)  55.3 nM
2  CC(C)Oc1nn(CCO)c2c1/C=C/c1n[nH]c3ccc(cc13)-c1cnn(C)c1OC(CF)CN(C)C2 (stereo not shown)  EGFR WT (Homo sapiens (Human), UniProt P00533)  51.8 nM
3  Cc1c2c(nn1C[C@@H](C)O)CN(C)C[C@H](C)Oc1c(cnn1C)-c1ccc3[nH]nc(c3c1)/C=C/2  EGFR WT (Homo sapiens (Human), UniProt P00533)   264 nM
4  CCN1Cc2c(c(C)nn2C)/C=C/c2n[nH]c3ccc(cc23)-c2cnn(C)c2O[C@@H](C)C1  EGFR WT (Homo sapiens (Human), UniProt P00533)  28.5 nM
5  CCN1Cc2c(c(OC(C)C)nn2C[C@H](C)O)/C=C/c2n[nH]c3ccc(cc23)-c2cnn(C)c2O[C@H](C)C1  EGFR WT (Homo sapiens (Human), UniProt P00533)   251 nM
6  CN1CCN(c2ccc3c(c2)OC2CCN(CCOc4c(cnn4C)-c4ccc5[nH]nc(c5c4)/C=C/3)C2=O)CC1 (stereo in doubt)  EGFR WT (Homo sapiens (Human), UniProt P00533)  17.7 nM

---

Target: EGFR L858R/T790M/C797S mutant (Homo sapiens (Human), UniProt P00533, C797S/L858R/T790M)
Sequence (P00533 25-1210 T790M/C797S/L858R): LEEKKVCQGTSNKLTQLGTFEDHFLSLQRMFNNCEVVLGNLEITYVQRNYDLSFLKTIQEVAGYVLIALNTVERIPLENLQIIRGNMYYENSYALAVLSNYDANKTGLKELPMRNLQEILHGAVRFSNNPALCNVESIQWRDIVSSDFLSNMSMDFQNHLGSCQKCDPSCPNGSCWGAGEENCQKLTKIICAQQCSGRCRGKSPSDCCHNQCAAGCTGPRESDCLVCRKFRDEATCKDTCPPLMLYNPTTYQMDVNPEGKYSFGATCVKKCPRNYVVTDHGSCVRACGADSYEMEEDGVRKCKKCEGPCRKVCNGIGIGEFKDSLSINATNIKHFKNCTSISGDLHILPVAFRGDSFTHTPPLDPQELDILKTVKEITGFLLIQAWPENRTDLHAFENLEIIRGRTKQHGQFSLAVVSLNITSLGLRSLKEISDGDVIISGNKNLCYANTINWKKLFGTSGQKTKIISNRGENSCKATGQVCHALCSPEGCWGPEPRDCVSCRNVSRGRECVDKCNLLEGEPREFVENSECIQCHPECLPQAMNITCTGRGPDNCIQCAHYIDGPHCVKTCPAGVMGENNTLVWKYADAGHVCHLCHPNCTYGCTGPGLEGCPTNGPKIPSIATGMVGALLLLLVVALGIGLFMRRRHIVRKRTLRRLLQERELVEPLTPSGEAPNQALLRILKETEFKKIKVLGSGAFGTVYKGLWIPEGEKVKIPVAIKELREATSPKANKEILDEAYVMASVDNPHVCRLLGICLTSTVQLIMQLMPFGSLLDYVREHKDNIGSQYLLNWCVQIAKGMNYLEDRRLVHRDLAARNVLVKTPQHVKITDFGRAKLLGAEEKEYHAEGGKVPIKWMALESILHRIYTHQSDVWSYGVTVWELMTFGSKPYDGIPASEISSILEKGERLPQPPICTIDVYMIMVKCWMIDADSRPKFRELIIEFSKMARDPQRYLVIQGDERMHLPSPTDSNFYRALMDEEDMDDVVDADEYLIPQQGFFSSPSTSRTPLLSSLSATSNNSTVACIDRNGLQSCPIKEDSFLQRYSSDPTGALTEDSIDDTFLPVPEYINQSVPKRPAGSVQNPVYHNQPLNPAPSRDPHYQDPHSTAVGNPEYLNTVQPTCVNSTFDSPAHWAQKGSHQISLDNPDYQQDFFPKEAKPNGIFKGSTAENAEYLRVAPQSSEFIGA
Test: HotSpot radiometric kinase assay, EGFR L858R/T790M/C797S mutant
Conditions: 10 μM ATP
Experimental: Biochemical Assays for Inhibition of Wild-Type and Mutant EGFRs Briefly, specific kinase/substrate pairs along with required cofactors were prepared in reaction buffer; 20 mM Hepes pH 7.5, 10 mM […], 1 mM EGTA, 0.02% Brij35, 0.02 mg/ml BSA, 0.1 mM Na3VO4, 2 mM DTT, 1% DMSO. Compounds were delivered into the reaction, followed […] later by addition of a mixture of ATP (Sigma, St. Louis MO) and ^33P ATP (Perkin Elmer, Waltham MA) to a final concentration of 10 μM. […]
pIC50: −log10 of the molar value.
Please mark true if the recorded pIC50 is equal to or greater than 8, and false if it falls below.

                                   molecule  answer_label
0  CCOc1ccc2c(n1)/C=C/c1n[nH]c3ccc(cc13)-c1cnn(C)c1O[C@@H](C)CN(C)C2          true
1  CCOc1nn([C@@H](C)CO)c2c1/C=C/c1n[nH]c3cc(F)c(cc13)-c1cnn(C)c1O[C@@H](C)CN(C)C2          true
2  C[C@H]1CN(C)Cc2onc(C3CC3)c2/C=C/c2n[nH]c3ccc(cc23)-c2cnn(C)c2O1         false
3  CSCn1ncc2c1O[C@@H](C)CN(C(C)C)Cc1c(c(C)nn1C)/C=C/c1n[nH]c3ccc-2cc13          true
4  CCOc1nn(CCO)c2c1/C=C/c1n[nH]c3ccc(cc13)-c1cnn(C)c1OC[C@H](CC)N(C)C2         false
5  Cc1c2c(nn1CCC(C)O)CN(C)C[C@H](C)Oc1c(cnn1C)-c1ccc3[nH]nc(c3c1)/C=C/2 (stereo partly shown)          true
6  Cc1c2c(nn1[C@H]1CCOC[C@@H]1O)OCCCOc1c(cnn1C)-c1ccc3[nH]nc(c3c1)/C=C/2 (racemic)         false
